Exercise: state measured Inhibition rate (%) at 0.823 nM for each of the binders provided.
- Measured target: T1, CTLA-4-hFc (immunogen A; hFc-labeled CTLA-4 extracellular domain protein) (human, UniProt P16410 36-161)
- T1 construct: range 36-161; Made in HEK293 cells, purified on protein A; also called CLTA-4-hFc; CTLA-4 protein; not shown: human IgG Fc fragment (hFc) of the pCpC vector
- T1 sequence (looked up): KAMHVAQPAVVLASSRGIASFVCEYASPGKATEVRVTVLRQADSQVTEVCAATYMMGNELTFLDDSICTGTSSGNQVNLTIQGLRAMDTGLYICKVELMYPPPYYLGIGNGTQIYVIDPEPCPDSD
- Assay notes: ELISA, coated CTLA-4-hFc, competitor biotin-B7.2-hFc
Numbers only, in %.

Please go through the list and note Inhibition rate (%) at 0.823 nM for each binder.
1. 92C8B6 (chimeric antibody purified from hybridoma supernatant) (antibody, V domains shown, also called mAb42; mAb042) VH: QVQLVESGGGVVQPGRSLRLSCAASGFTFSNFGMHWVRQAPGKGLEWVAVIWYDGSNKYYADSVKGRFTISRDNSKNTLFLQMNGLRAEDTAVYYCAKGGILMAGTLDYWGQGTLVTVSS VL: DIQMTQSPSSLSASVGDRVTITCRASQSVSTYLNWYQQKPGKAPKLLIYAASSFQSGVPSRFSGSGSGTDFTLTISSLQPEDFATYFCQQSYSTPFTFGPGTKVDIK
2. 31C12F3 (chimeric antibody purified from hybridoma supernatant) (antibody, V domains shown, also called mAb010) VH: QVQLVESGGGVVQPGRSLILSCAASGFTFSSYGMHWVRQAPGKGLEWVAVVWYDGSNKYYADSVKGRFTISRDNSKNTLYLQMSSLRAEDTAVYYCARGGIVVPGLFEYWGQGSLVTVSS VL: DIQMTQSPSSLSASVGDRVAITCRTSQSISNLLNWYQQKPGKAPELLIYAPSSFQSGVPSRFRGSGSGTDFTLTISSLQPEDFATYYCQQSYSTPFTFGPGTKVDIK

90
60.2

Please go through the list and note Inhibition rate (%) at 0.823 nM for each binder.
1. 97A8D1 (chimeric antibody purified from hybridoma supernatant) (antibody, V domains shown, also called mAb49; mAb049) VH: QVQLVESGGGVVQPGRSLRLSCVASGFTFNNYGMNWVRQAPGKGLEWVAVIWYGGRNKFYADSVKGRFTISRDNSKNTLYLEMNSLRAEDTAVYYCARADWGGWFDPWGQGTLVTVSS VL: EIVLTQSPGTLSLSPGERATLSCRASQSVSSTYLAWYQQKPGQAPRLLIHGAFSRATGIPDRFSGSGSGPDFTLTISRLEPEDFAVYYCQQYGTSPFTFGPGTKVDIK
2. 40C4C6 (chimeric antibody purified from hybridoma supernatant) (antibody, V domains shown, also called mAb09; mAb009) VH: QVQLVESGGGVVQPGRSLRLSCAASGFTFSSYGMHWVRQAPGKGLEWVAVIWYDGRNKYYADSVKGRFTISRDNSKNTLYLQMNSLRAEDTAVYYCARASGSYSYYFDYWGQGTLVTVSS VL: DIQMTQSPSSLSASVGGRVTITCRASQSISSFLNWYQHELGKAPKLLIYGASSLQSGVPSRFSGSGSGTDFTLTISSLQPEDFATYYCQQTYSTPFTFGPGTKVDIK

[76, 53.3]
